Entry source: paper PMC12073635

Recorded GI50 values (AGS (gastric adenocarcinoma) cells) are given below.
reportedMetric: GI50 (µM)

structureassmiles=O=c1oc(-c2ccccc2)c(-c2ccccc2)c2c1sc1nc3ccccc3cc12 val=93.5
structureassmiles=COC(=O)c1sc2nccnc2c1C#Cc1ccc(OC)cc1 val=59.3
structureassmiles=COc1ccc(-c2cc3c(sc4nccnc43)c(=O)o2)cc1 val=56.2
structureassmiles=Cc1ccc(-c2cc3c(sc4nccnc43)c(=O)o2)cc1 val=43.8
structureassmiles=O=c1oc(-c2ccc(Br)cc2)c(-c2ccc(Br)cc2)c2c1sc1nc3ccccc3cc12 val=104
structureassmiles=COc1ccc(-c2oc(=O)c3sc4nc5ccccc5cc4c3c2-c2ccc(OC)cc2)cc1 val=88.6
structureassmiles=CCCCc1oc(=O)c2sc3nc4ccccc4cc3c2c1CCCC val=99.8
structureassmiles=O=c1oc(-c2ccccn2)cc2c1sc1nccnc12 val=42.6
structureassmiles=O=c1oc(-c2ccsc2)cc2c1sc1nccnc12 val=45.3
structureassmiles=O=c1oc(-c2ccccc2)c(Br)c2c1sc1nccnc12 val=32.8
structureassmiles=COC(=O)c1sc2nccnc2c1C#Cc1ccccc1 val=86.8
structureassmiles=O=c1oc(-c2ccccc2)cc2c1sc1nccnc12 val=56.4
structureassmiles=O=c1oc(-c2ccc(F)cc2)cc2c1sc1nccnc12 val=51.5

---

NCI-H460 (non-small cell lung cancer) cells GI50 data
reportedMetric: GI50

compound=COC(=O)c1sc2nccnc2c1C#Cc1ccc(F)cc1 systemundertest="NCI-H460 (non-small cell lung cancer) cells" val="67.2 µM"
compound=O=c1oc(-c2ccccn2)cc2c1sc1nccnc12 systemundertest="NCI-H460 (non-small cell lung cancer) cells" val="61.2 µM"
compound=COC(=O)c1sc2nccnc2c1C#Cc1ccccn1 systemundertest="NCI-H460 (non-small cell lung cancer) cells" val="9.33 µM"
compound=O=c1oc(-c2ccccc2)c(-c2ccccc2)c2c1sc1nc3ccccc3cc12 systemundertest="NCI-H460 (non-small cell lung cancer) cells" val="93.9 µM"
compound=O=c1oc(-c2ccc(Br)cc2)c(-c2ccc(Br)cc2)c2c1sc1nc3ccccc3cc12 systemundertest="NCI-H460 (non-small cell lung cancer) cells" val="108 µM"
compound=COC(=O)c1sc2nccnc2c1C#Cc1ccc(OC)cc1 systemundertest="NCI-H460 (non-small cell lung cancer) cells" val="82.5 µM"
compound=O=c1oc(-c2ccc(F)cc2)cc2c1sc1nccnc12 systemundertest="NCI-H460 (non-small cell lung cancer) cells" val="72.4 µM"
compound=O=c1oc(-c2ccccc2)c(Br)c2c1sc1nccnc12 systemundertest="NCI-H460 (non-small cell lung cancer) cells" val="48.3 µM"
compound=COC(=O)c1sc2nccnc2c1C#Cc1ccsc1 systemundertest="NCI-H460 (non-small cell lung cancer) cells" val="62.1 µM"
compound=COC(=O)c1sc2nccnc2c1C#Cc1ccccc1 systemundertest="NCI-H460 (non-small cell lung cancer) cells" val="91.5 µM"
compound=Cc1ccc(-c2cc3c(sc4nccnc43)c(=O)o2)cc1 systemundertest="NCI-H460 (non-small cell lung cancer) cells" val="29.3 µM"
compound=Cc1c(-c2ccccc2)oc(=O)c2sc3nc4ccccc4cc3c12 systemundertest="NCI-H460 (non-small cell lung cancer) cells" val="92.1 µM"
compound=O=c1oc(-c2ccccc2)c(Cl)c2c1sc1nccnc12 systemundertest="NCI-H460 (non-small cell lung cancer) cells" val="51.5 µM"
compound=COC(=O)c1sc2nccnc2c1C#Cc1ccc(N)cc1 systemundertest="NCI-H460 (non-small cell lung cancer) cells" val="48.6 µM"
compound=Nc1ccc(-c2cc3c(sc4nccnc43)c(=O)o2)cc1 systemundertest="NCI-H460 (non-small cell lung cancer) cells" val="82.7 µM"
compound=CCCCc1oc(=O)c2sc3nc4ccccc4cc3c2c1CCCC systemundertest="NCI-H460 (non-small cell lung cancer) cells" val="109 µM"
compound=COc1ccc(-c2oc(=O)c3sc4nc5ccccc5cc4c3c2-c2ccc(OC)cc2)cc1 systemundertest="NCI-H460 (non-small cell lung cancer) cells" val="97.8 µM"
compound=COc1ccc(-c2cc3c(sc4nccnc43)c(=O)o2)cc1 systemundertest="NCI-H460 (non-small cell lung cancer) cells" val="45.3 µM"
compound="COc1cccc2c1C(=O)c1c(O)c3c(c(O)c1C2=O)C[C@@](O)(C(=O)CO)C[C@@H]3O[C@H]1C[C@H](N)[C@H](O)[C@H](C)O1 [doxorubicin, Doxorubicin, reference compound]" systemundertest="NCI-H460 (non-small cell lung cancer) cells" val="0.07 µM"
compound=O=c1oc(-c2ccccc2)cc2c1sc1nccnc12 systemundertest="NCI-H460 (non-small cell lung cancer) cells" val="36.5 µM"
compound=COC(=O)c1sc2nccnc2c1C#Cc1ccc(C)cc1 systemundertest="NCI-H460 (non-small cell lung cancer) cells" val="102 µM"
compound=O=c1oc(-c2ccsc2)cc2c1sc1nccnc12 systemundertest="NCI-H460 (non-small cell lung cancer) cells" val="44 µM"

---

Test system: T. brucei Lister 427 bloodstream forms
Experiment: Resazurin-based anti-T. brucei assay
Format: cell-based, Trypanosoma brucei
Conditions: 72 h, dose-response
Procedure: The antiparasitic activity of compounds 2c–g, 3a, 5a and 7 was evaluated at a single concentration of 20 μM, against Trypanosoma brucei (T. brucei) and Leishmania infantum (L. infantum) promastigotes. The results are shown in Table 9 together with the cytotoxicity data (CC50) in THP-1–derived macrophages cells. […] The efficacy of compounds against T. brucei bloodstream forms was evaluated using a modified resazurin-based assay previously described in the literature. […]
reportedMetric: IC50 (µM)

structureassmiles=O=c1oc(-c2ccccc2)c(Cl)c2c1sc1nccnc12 val=10.8

---

Catalogue of CC50 at 72 h values
assay: MTT cytotoxicity in THP-1-derived macrophages; format: cell-based, human; settings: human, THP-1-derived macrophages (PMA-differentiated); MTT, 72 h, tested 100 to 12.5 μM; read-out: CC50 Interval in THP-1-Derived Macrophages
reportedMetric: CC50 at 72 h

molecule="O=c1oc(-c2ccc(C(F)(F)F)cc2)c(-c2ccc(C(F)(F)F)cc2)c2c1sc1nc3ccccc3cc12 [Compound 7e]" val="25 to 50 µM"
molecule="O=c1oc(-c2ccccc2)c(Cl)c2c1sc1nccnc12 [Compound 5a]" val="50 to 100 µM"
molecule="COC(=O)c1sc2nccnc2c1C#Cc1ccc(C)cc1 [Compound 2e]" val="> 100 µM"
molecule="CCCCc1oc(=O)c2sc3nc4ccccc4cc3c2c1CCCC [Compound 7b]" val="12.5 to 50 µM"
molecule="Cc1c(-c2ccccc2)oc(=O)c2sc3nc4ccccc4cc3c12 [Compound 7f]" val="12.5 to 50 µM"
molecule="COC(=O)c1sc2nccnc2c1C#Cc1ccc(F)cc1 [Compound 2c]" val="> 100 µM"
molecule="O=c1oc(-c2ccc(Br)cc2)c(-c2ccc(Br)cc2)c2c1sc1nc3ccccc3cc12 [Compound 7c]" val="< 12.5 µM"
molecule="COc1ccc(-c2oc(=O)c3sc4nc5ccccc5cc4c3c2-c2ccc(OC)cc2)cc1 [Compound 7d]" val="< 12.5 µM"
